Where do the numbers come from? From patent US7910584B2.

# system: recombinant human vasopressin V2 receptors (Homo sapiens)
# Sequence (P30518 whole entry): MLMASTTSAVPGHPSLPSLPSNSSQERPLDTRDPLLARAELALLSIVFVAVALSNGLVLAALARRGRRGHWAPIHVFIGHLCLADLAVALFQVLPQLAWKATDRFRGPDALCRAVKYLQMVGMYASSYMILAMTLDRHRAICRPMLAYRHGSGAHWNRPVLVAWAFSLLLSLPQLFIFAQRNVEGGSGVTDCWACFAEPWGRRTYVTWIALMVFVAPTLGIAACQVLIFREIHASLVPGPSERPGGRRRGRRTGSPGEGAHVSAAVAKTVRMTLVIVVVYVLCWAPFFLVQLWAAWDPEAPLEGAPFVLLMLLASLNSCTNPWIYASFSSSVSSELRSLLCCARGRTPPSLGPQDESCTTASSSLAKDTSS
# experimentalDetails: In vitro binding assay, [3H]-AVP displacement on plasma membranes
# testConditions: membranes from tissues or CHO cell line expressing recombinant human V2 receptors; 3.5 nM [H3]-AVP; 45 minutes at 25° C.; read-out: IC50 (concentration of product that inhibits 50% of the specific binding)
valueType: IC50

QUERY: Consider the molecule shown here: CCOc1ccc2c(c1)C1(CCC(OCCN3CCOCC3=O)CC1)C(=O)N2S(=O)(=O)c1ccc(C(=O)NC(C)(C)C)cc1OC (stereo not shown) What is its recorded IC50?
RESULT: ~7.3 nM
